Values from the kinase profiling compilation of Christmann-Franck et al. (2016)

# residual activity listing for each entry below
Target: MAPK11 (human) (UniProt Q15759)
Sequence (Q15759 whole entry, looked up): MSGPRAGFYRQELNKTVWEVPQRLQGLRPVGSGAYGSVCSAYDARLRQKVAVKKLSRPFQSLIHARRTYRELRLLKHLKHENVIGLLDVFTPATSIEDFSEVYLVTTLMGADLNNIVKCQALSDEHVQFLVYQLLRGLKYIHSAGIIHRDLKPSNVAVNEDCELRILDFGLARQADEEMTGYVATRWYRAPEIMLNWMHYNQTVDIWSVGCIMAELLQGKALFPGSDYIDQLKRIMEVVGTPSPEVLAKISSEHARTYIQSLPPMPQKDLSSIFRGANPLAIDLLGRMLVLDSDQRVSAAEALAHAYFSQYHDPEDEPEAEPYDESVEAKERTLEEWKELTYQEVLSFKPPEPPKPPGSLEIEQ
Experiment: radiometric filter-binding kinase assay, Kinase HotSpot
Settings: compound 0.5 µM; ATP 10 µM

CCc1nc(-c2ccc(OC)cc2)[nH]c1-c1ccncc1 :: 104%

Suppose we examine the compound O=c1c2ccccc2[nH]c(=S)n1CCN1CCC(=C(c2ccc(F)cc2)c2ccc(F)cc2)CC1 ; what residual activity value has been reported?
99.3%

Suppose we examine the compound N#C/C(=C1/Nc2ccccc2S1)c1ccnc(NCCc2cccnc2)n1 ; what residual activity value has been reported?
101%

Suppose we examine the compound N/C(=N\N=C/c1ccc(-c2cccc([N+](=O)[O-])c2)o1)N[N+](=O)[O-] ; what residual activity value has been reported?
96.6%
